Data provenance is patent US20230203060A1.

Target: KRAS G12C (Homo sapiens, UniProt P01116, G12C)
Construct: purchased Reactionbiology
Sequence (P01116 1-188 isoform P01116-2 G12C): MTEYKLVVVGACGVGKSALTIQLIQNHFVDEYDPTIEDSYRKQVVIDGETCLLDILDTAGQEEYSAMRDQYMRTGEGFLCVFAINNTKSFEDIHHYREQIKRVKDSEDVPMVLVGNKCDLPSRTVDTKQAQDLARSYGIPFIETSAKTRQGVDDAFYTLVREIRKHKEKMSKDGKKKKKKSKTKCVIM
Test: KRAS G12C NEA-HTRF experiment (SOS1-catalyzed displacement of GDP by GTP)
Type: biochemical
Counter-ions that a name gives are not always drawn.
IC50 less than 60 nM is Condition met; IC50 greater than or equal to 60 nM is Condition not met.

Examples with answers:
C=CC(=O)N1CCN2C(=O)c3c(N4C[C@@H](N(C)C)CC4(C)C)nc(-c4cccc(C)c4F)c(Cl)c3OC[C@H]2C1 (single isomer, unassigned) ... Condition not met
C=CC(=O)N1CCN2C(=O)c3c(N4CCN(C)C[C@@H]4C)nc(-c4c(O)ccc(Cl)c4F)c(Cl)c3OC[C@H]2C1 ... Condition not met
C=CC(=O)N1CCN2C(=O)c3c(N4CC(N5CC(F)C5)CC4(C)C)nc(-c4ccccc4F)c(Cl)c3OC[C@H]2C1 (single isomer, unassigned) ... Condition not met

Request: Decide: IC50 of C=CC(=O)N1CCN2C(=O)c3c(N4CC(N5CCN(C)CC5)CC4(C)C)nc(-c4c(O)cccc4F)c(Cl)c3OC[C@H]2C1 (stereo partly drawn) strictly below 60 nM?
Result: Condition met

Request: Can you check C=CC(=O)N1CCN2C(=O)c3c(N4C[C@H](NC)CC4(C)C)nc(-c4ccccc4F)c(Cl)c3OC[C@H]2C1 (single isomer, unassigned) next?
Result: Condition not met

Request: Can you check C=CC(=O)N1CCN2C(=O)c3c(N4Cc5cn(C)nc5[C@H]4C)nc(-c4c(O)cccc4F)c(Cl)c3OC[C@H]2C1 (single isomer, unassigned) [Z291-1S, trifluoroacetate] next?
Result: Condition not met

Request: Can you check C=CC(=O)N1CCN2C(=O)c3c(OC4CCCN(C)C4)nc(-c4c(O)cccc4F)c(Cl)c3OC[C@H]2C1 (stereo partly drawn) next?
Result: Condition not met

Request: Can you check C=CC(=O)N1CCN2C(=O)c3c(N4CCC[C@@]4(C)C(=O)NC)nc(-c4c(F)cccc4OC)c(Cl)c3OC[C@H]2C1 (single isomer, unassigned) [Z466-1] next?
Result: Condition not met

Request: Can you check C=CC(=O)N1CCN2C(=O)c3c(N4C[C@@H](O)CC4(C)C)nc(-c4c(O)cccc4F)c(F)c3OC[C@H]2C1 (single isomer, unassigned) next?
Result: Condition met

Request: Can you check C=CC(=O)N1CCN2C(=O)c3c(N4CCN(C(=O)C5CC5)C[C@@H]4C)nc(-c4c(O)cccc4F)c(Cl)c3OC[C@H]2C1 next?
Result: Condition met

###

Test system: KRAS G12C mutant NCI-H358 cells
Assay: Cell proliferation inhibition experiment, 3D spheroid, CellTiter-Glo, NCI-H358
Assay type: cell-based, human
Conditions: Homo sapiens, NCI-H358, 120 h, NCI-H358 (KRAS G12C mutant) 3D spheroid, 5 days with compound, CellTiter-Glo; read-out: H358 IC50
Structures can show the parent of a compound that is named as a salt.
For each of the compounds below, state its pIC50.
One number for each entry, as −log10 of the molar value.

Below, each entry is followed by its recorded pIC50 result.
C=CC(=O)N1CCN2C(=O)c3c(OCC4N(C)CCC4(C)C)nc(-c4c(O)cccc4F)c(Cl)c3OC[C@H]2C1 (stereo partly drawn) ... 7.35
C=CC(=O)N1CCN2C(=O)c3c(N4CC(N(C)CC(F)(F)F)CC4(C)C)nc(-c4ccccc4F)c(Cl)c3OC[C@H]2C1 (mixture of isomers) [Z491a] ... 8.70
C=CC(=O)N1CCN2C(=O)c3c(N4Cc5cnn(C)c5[C@@H]4C)nc(-c4c(O)cccc4F)c(Cl)c3OC[C@H]2C1 (single isomer, unassigned) [Z292S, trifluoroacetate] ... 7.43
C=CC(=O)N1CCN2C(=O)c3c(N(C)C4CCOCC4)nc(-c4c(O)cccc4F)c(Cl)c3OC[C@H]2C1 ... 7.24
C=CC(=O)N1CCN2C(=O)c3c(N4C[C@H](O)CC4(C)C)nc(-c4c(O)ccc(Cl)c4F)c(F)c3OC[C@H]2C1 (single isomer, unassigned) ... 7.57
C=CC(=O)N1CCN2C(=O)c3c(N4CCN(C)C[C@@H]4C)nc(-c4ccccc4F)c(Cl)c3OC[C@H]2C1 ... 7.73
C=CC(=O)N1CCN2C(=O)c3c(N4CCCC4)nc(-c4c(O)cccc4F)c(Cl)c3OC[C@H]2C1 ... 7.38
C=CC(=O)N1CCN2C(=O)c3c(N4CCN(CCOC)C(C)(C)C4)nc(-c4c(O)cccc4F)c(Cl)c3OC[C@H]2C1 ... 8.35

Can you give me pIC50 for all of these, one by one?
1. C=CC(=O)N1CCN2C(=O)c3c(N4CC[C@H](OC)[C@@H]4C)nc(-c4c(O)cccc4F)c(Cl)c3OC[C@H]2C1
2. C=CC(=O)N1CCN2C(=O)c3c(Nc4c(C)ccnc4C(C)C)nc(-c4c(O)cccc4F)c(F)c3OC[C@H]2C1
3. C=CC(=O)N1CCN2C(=O)c3c(N4C[C@@H](OC)C[C@@H]4C)nc(-c4c(O)cccc4F)c(F)c3OC[C@H]2C1
4. C=CC(=O)N1CCN2C(=O)c3c(N4CCC5(COC5)C4)nc(-c4c(O)cccc4F)c(Cl)c3OC[C@H]2C1

Result:
8.68
7.64
8.08
7.34
